Reference for the values: ChEMBL document CHEMBL2346561

Target: Glutamate NMDA receptor; Grin1/Grin2b (Rattus norvegicus, UniProt P35439+Q00960)
Sequence (Q00960 whole entry, other chains not shown): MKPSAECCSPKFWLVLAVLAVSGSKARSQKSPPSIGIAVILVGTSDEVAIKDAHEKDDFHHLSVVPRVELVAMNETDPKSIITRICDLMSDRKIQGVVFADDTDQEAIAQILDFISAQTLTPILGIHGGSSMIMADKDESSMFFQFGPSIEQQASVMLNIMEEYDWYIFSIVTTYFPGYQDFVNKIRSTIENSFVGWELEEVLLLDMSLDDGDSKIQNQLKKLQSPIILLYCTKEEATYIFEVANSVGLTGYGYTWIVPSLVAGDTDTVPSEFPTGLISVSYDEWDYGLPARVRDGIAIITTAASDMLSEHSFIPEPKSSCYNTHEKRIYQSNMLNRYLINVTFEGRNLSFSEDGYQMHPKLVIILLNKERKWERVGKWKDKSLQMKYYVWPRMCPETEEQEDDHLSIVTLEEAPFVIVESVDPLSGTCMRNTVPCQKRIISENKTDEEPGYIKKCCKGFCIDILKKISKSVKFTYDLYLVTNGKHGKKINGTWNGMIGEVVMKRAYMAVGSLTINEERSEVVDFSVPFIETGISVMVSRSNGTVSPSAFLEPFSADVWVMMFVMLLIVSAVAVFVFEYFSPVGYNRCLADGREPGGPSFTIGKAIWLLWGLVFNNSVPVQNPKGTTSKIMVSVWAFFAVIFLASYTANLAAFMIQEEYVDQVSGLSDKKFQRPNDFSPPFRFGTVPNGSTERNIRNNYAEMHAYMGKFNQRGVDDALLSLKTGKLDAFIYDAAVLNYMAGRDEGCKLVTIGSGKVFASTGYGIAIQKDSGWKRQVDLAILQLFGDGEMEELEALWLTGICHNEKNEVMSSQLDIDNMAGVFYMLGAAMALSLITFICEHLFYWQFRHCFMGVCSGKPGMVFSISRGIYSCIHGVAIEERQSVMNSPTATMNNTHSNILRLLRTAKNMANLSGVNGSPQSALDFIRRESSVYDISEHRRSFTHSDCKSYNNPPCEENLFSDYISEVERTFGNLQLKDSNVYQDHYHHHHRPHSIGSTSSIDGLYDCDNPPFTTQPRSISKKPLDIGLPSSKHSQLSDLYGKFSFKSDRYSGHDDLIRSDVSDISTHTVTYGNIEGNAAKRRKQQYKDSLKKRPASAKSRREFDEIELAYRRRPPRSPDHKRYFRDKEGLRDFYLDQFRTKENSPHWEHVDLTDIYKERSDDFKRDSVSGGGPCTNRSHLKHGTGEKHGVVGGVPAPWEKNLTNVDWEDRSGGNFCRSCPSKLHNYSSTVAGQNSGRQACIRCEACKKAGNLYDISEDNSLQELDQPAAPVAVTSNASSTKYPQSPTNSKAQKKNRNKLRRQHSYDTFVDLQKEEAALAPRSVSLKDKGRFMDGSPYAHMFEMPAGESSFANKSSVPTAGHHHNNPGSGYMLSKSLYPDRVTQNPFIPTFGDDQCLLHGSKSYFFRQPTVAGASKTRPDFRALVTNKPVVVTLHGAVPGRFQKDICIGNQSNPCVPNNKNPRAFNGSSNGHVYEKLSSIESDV
Test: Agonist activity at rat recombinant wild type GluN1/GluN2B receptor expressed in Xenopus laevis oocytes by two electrode voltage clamp technique
Type: cell-based, Oocyte
pEC50: −log10 of the molar value.

Structure: C[C@]1(C(=O)O)C[C@H]1[C@H](N)C(=O)O
pEC50: 7.35

Structure: N[C@H](C(=O)O)[C@@H]1C[C@@H]1C(=O)O
pEC50: 7.08

Structure: CCC[C@]1(C(=O)O)C[C@H]1[C@H](N)C(=O)O
pEC50: 4.80

Structure: CCCC[C@]1(C(=O)O)C[C@H]1[C@H](N)C(=O)O
pEC50: 4.99
